Reported % UTC (Yap1 mRNA) values for the following substances.
test system: Yap1 mRNA; assay: Dose-dependent inhibition of human Yap1 in SNU-449 cells (Example 9, RTS36584); format: cell-based; conditions: 31.3 nM, free uptake, approximately 48 hours
Strand notation (5' to 3'): a small letter for the sugar, then the base; units joined by * are phosphorothioate-linked, units joined directly phosphodiester-linked; [ ] holds rarer units or linkages, { } end groups; capitals alone tell only the bases. e = 2'-O-(2-methoxyethyl) (MOE); k = constrained ethyl (cEt); [5mC] = 5-methylcytosine; d = 2'-deoxy (DNA); m = 2'-O-methyl
MEASURED_METRIC: % UTC (Yap1 mRNA) (% UTC)

substance="1074462 (kG*kG*kA*dA*dA*dT*dT*dG*dT*d[5mC]*dT*d[5mC]*dA*kT*kG*k[5mC]; antisense) [compound 1074462]" assay_system="Yap1 mRNA" units_of_measure="% UTC" measured_number=90
substance="1095481 (kT*kG*dA*dG*dG*dT*dA*dT*dA*dA*d[5mC]*dT*kG*eG*kG*e[5mC]) [compound 1095481]" assay_system="Yap1 mRNA" units_of_measure="% UTC" measured_number=73
substance="1198616 (kT*kT*kT*dA*dA*dA*dG*dT*dG*dT*dA*dT*kG*kT*k[5mC]*eA; antisense) [compound 1198616]" assay_system="Yap1 mRNA" units_of_measure="% UTC" measured_number=78
substance="1200788 (kG*kA*kA*dA*dT*mU*dG*dT*d[5mC]*dT*d[5mC]*dA*dT*kG*k[5mC]*k[5mC]) [compound 1200788]" assay_system="Yap1 mRNA" units_of_measure="% UTC" measured_number=61
substance="1198718 (kG*eA*kA*dA*dT*dT*dG*dT*d[5mC]*dT*d[5mC]*dA*eT*eG*k[5mC]*k[5mC]; antisense) [compound 1198718]" assay_system="Yap1 mRNA" units_of_measure="% UTC" measured_number=87
substance="1009326 (kT*kA*kT*dT*dA*dG*dA*dG*dT*dA*dT*dG*dT*kG*kG*k[5mC]; antisense) [compound 1009326]" assay_system="Yap1 mRNA" units_of_measure="% UTC" measured_number=59

---

system: Yap1 mRNA; test: Dose-dependent inhibition of human Yap1 in A-431 cells (Example 8, 10,000 cells per well, RTS4814); assay type: cell-based; settings: 2000.00 nM; A-431 cells, 10,000 cells per well, free uptake, approximately 48 hours, RTS4814
Strand notation (5' to 3'): a small letter for the sugar, then the base; units joined by * are phosphorothioate-linked, units joined directly phosphodiester-linked; [ ] holds rarer units or linkages, { } end groups; capitals alone tell only the bases. k = constrained ethyl (cEt); [5mC] = 5-methylcytosine; d = 2'-deoxy (DNA)
Here, each record is paired with measured Yap1 mRNA, % UTC data.
MEASURED_METRIC: Yap1 mRNA, % UTC (% UTC)

substance="1075498 (k[5mC]*kA*kT*dT*dA*dT*dA*dT*dA*dA*dT*dG*d[5mC]*kA*kG*kG; antisense) [compound 1075498]" measured_number=16
substance="1075084 (antisense kT*kG*kA*d[5mC]*dA*dA*d[5mC]*dA*dA*d[5mC]*dA*d[5mC]*dT*k[5mC]*k[5mC]*kT) [compound 1075084]" measured_number=14
substance="1075842 (kG*kT*kA*dT*dT*dT*dA*dG*dG*dT*dA*d[5mC]*dT*k[5mC]*kA*kG; antisense) [compound 1075842]" measured_number=3
substance="1075808 (kG*k[5mC]*kA*dA*dT*dA*dG*dA*dG*dT*dA*dA*d[5mC]*k[5mC]*kA*kG; antisense) [compound 1075808]" measured_number=4
substance="1074274 (antisense kG*kT*kT*d[5mC]*dT*dT*dA*dT*dG*dG*dT*dT*dT*kA*kT*kA) [compound 1074274]" measured_number=5
substance="1075233 (kG*kT*kA*dA*dT*dT*dT*dA*dT*d[5mC]*dA*dG*d[5mC]*k[5mC]*kA*kT; antisense) [compound 1075233]" measured_number=3
